- Test system: Beta-glucosidase (B-glu1, SEQ: 1)
- Assay Comment: de-glycosylation (hydrolysis) of steviol glycosides by purified recombinant B-glu1, HPLC analysis
- Type: biochemical, Pichia pastoris
- Experimental Setup: recombinant B-glu1 10 μg in 300 μl, 1 mg/ml steviol glycoside, 50 mM potassium phosphate pH 7.2, 30-37° C.
Measured Metric: Products of hydrolysis of steviol glycoside substrate by B-glu1

[[record]]
compound = "C=C1C[C@@]23CC[C@H]4[C@@](C)(CCC[C@@]4(C)C(=O)O[C@@H]4O[C@H](CO)[C@@H](O)[C@H](O)[C@H]4O[C@@H]4O[C@H](CO)[C@@H](O)[C@H](O)[C@H]4O)[C@@H]2CC[C@]1(O[C@@H]1O[C@H](CO)[C@@H](O)[C@H](O[C@@H]2O[C@H](CO)[C@@H](O)[C@H](O)[C@H]2O)[C@H]1O[C@@H]1O[C@H](CO)[C@@H](O)[C@H](O)[C@H]1O)C3 [Reb D, rebaudioside D]"
endpoint_result = "Reb B"

[[record]]
compound = "C=C1C[C@@]23CC[C@H]4[C@@](C)(CCC[C@@]4(C)C(=O)O[C@@H]4O[C@H](CO)[C@@H](O)[C@H](O)[C@H]4O)[C@@H]2CC[C@]1(O[C@@H]1O[C@H](CO)[C@@H](O)[C@H](O[C@@H]2O[C@H](CO)[C@@H](O)[C@H](O)[C@H]2O)[C@H]1O[C@@H]1O[C@H](CO)[C@@H](O)[C@H](O)[C@H]1O)C3 [Reb A, rebaudioside A]"
endpoint_result = "Reb B"


Taken from patent US11414689B2.
